Where do these numbers come from? They come from the NIST ThermoML archive (doi:10.1021/acs.jced.5b00259).

- condition description: 308.15 K; 100 kPa; Liquid
quantity: viscosity (mPa·s)
Give bare numbers, in mPa·s.

> print(dat)
                                   molecule   quantity  reported
1  CC[NH+]=C(N(C)C)N(C)C.O=S(=O)([N-]S(=O)(=O)C(F)(F)F)C(F)(F)F  viscosity     38.71

I need viscosity for every entry listed below, if you could help.
1. CCCO [propan-1-ol]
2. CCO [ethanol]
3. CCOS(=O)(=O)[O-].CC[NH+]=C(N(C)C)N(C)C [2-ethyl-1,1,3,3-tetramethylguanidinium ethyl sulfate]

1: 1.525; 2: 0.895; 3: 214.6
